# Tested on: SF-295 CNS
# run.description: NCI-60 one-dose screen, 48 h (100 = growth as untreated, 0 = no growth, -100 = all killed)
# condition.parameters: 10 µM unless noted
# Procedure: Cells are grown in 96 well plates and exposed to the test compound for 48 hours. Compounds are tested at a single concentration, which is 10^-5 M for most compounds. The reported endpoint is percent growth (GI% or GIPRCNT), where numbers from 0 - 100% represent growth inhibition, and numbers from -100% - 0 represent cell death. For example, a value of 40 represents 60% growth inhibition. A value of 0 means no net growth occurred over the course of the experiment. […]
About 83,000 compounds went through this panel and 20% of them were active in at least one assay; those are over-represented in the sample as a whole.
parameter: growth (%)
Numeric answer only, unit % assumed.

Fill blank: measured growth of the compound `O=C(Nc1ccc(N=Nc2ccccc2)cc1)c1cccc2ccccc12` is ____.
57.1

Ok, now CC(N)C(Cc1ccc(Cl)cc1)c1ccc(Cl)cc1 (stereo unspecified)
84.9

What about this compound? O=C(O)C1(Cc2cccc(Nc3nccs3)n2)CCC(Oc2cccc(Cl)c2F)CC1 (stereo unspecified)
71.5

Request: `CC[C@H](Nc1ncnc2nc[nH]c12)c1nc2cccc(F)c2c(=O)n1-c1ccccc1`
57.9

What do we get for `Fc1ccc(NCc2cn(-c3ccccc3)nc2-c2ccc(OCc3ccccc3)cc2)cc1Cl` ?
87

Ok, now `COc1cc2ncnc(Nc3ccc(F)c(Cl)c3)c2cc1NC(=O)/C=C/CN1CCCCC1`
-55

Then this compound: COc1cc2c(c(OC)c1)C1c3ccccc3NC(=O)N1CC2 (stereo unspecified)
13.2

# iterate: `Cc1cc(Nc2cc(N3CCN(C)CC3)nc(Sc3ccc(NC(=O)C4CC4)cc3)n2)n[nH]1`
32.7

Same question, `COc1cc(N2CCC(N(C)C)CC2)ccc1Nc1ncc(Cl)c(Nc2ccccc2P(C)(C)=O)n1` this time
27.7

Would you mind doing `CCCCn1c(C)nc2cc(Nc3nc(N4CCCCC4)nc4nc[nH]c34)ccc21` as well?
47.1

`OCCNC(=S)Nc1ccc(-c2nc(N3C[C@H]4CC[C@@H](C3)O4)c3cccn3n2)cc1` ?
-34.3

Can you check CC(=O)OC(C(=O)c1ccccc1)c1ccccc1 (stereo unspecified) next?
108

# iterate: `CNC(=O)c1c(C)oc2cc(Oc3ncnc4cc(OC)c(OC)cc34)ccc12`
96

Here is the next compound: CC1(O)CC(c2nc(-c3ccc4ccc(-c5ccccc5)nc4c3)c3c(N)nccn23)C1 (stereo unspecified)
46.7

Proceed to `O=C(NC1CCNCC1)c1[nH]ncc1NC(=O)c1c(Cl)cccc1Cl`
8.53

Cool, now `CN1[C@@H]2CC[C@H]1/C(=C\c1ccccc1)C1=C2[C@@H](c2ccccc2)C(C#N)=C(N)O1`
83.8

Also COc1ccc(-c2cc3c(C)nc(N)nc3n(C3CCC(OCCO)CC3)c2=O)cn1 (stereo unspecified) , if possible.
-57.7

Check `COc1cnc2c(c1)C(=O)c1c-2n(CCCN2CCC(N)CC2)c(=O)c2cc([N+](=O)[O-])ccc12` too.
24.2

`CCc1nc2cc(/C=C/C(=O)NO)ccc2c(=O)n1CCc1ccc(F)cc1` , same question.
10.4

Quick one: `Cc1ccc(NC(=O)NC(=O)CSc2nc3ccccc3nc2C)cc1`
43.7

Follow-up entry: COC(=O)CC[C@@H](C)[C@H]1CC[C@H]2C3CC[C@@H]4C[C@@H]5CC[C@]4(C)[C@@]3(O5)[C@H](Br)[C@@H](Br)[C@]12C (stereo partly specified)
99.3

Same again, this time with `C[N+](C)(CCOC(c1ccccc1)c1ccccc1)CC(=O)OCc1ccccc1`
103

Follow-up entry: `CCN(CC)C(=O)C[N+](C)(C)CCOC(c1ccccc1)c1ccccc1`
99.5

// repeat for `COc1cc2c(Nc3ccc(Br)cc3F)ncnc2cc1OCC1CCN(C)CC1` and report
45.8

Same question for O=C1CC(c2cccc(F)c2)c2c(n[nH]c2-c2ccc(Cl)cc2)N1 (stereo unspecified) please.
91.8

// repeat for `COc1cc(C(=O)NNC(=O)c2ccc(NC(=O)CCl)cc2)cc(OC)c1OC` and report
93.7

Again, but for `Cc1oc2c(C(=O)N/N=C\c3ccc(O)cc3O)c[nH]c2c1C`
12.3

Subsequent entry: `C/C=C/C=N/NC(=S)Nc1ccccc1`
98.9

Quick one: `Cc1cccc(Cl)c1NC(=O)c1cnc(Nc2cc(N3CCOCC3)cc(S(C)(=O)=O)c2)s1`
53.8

What would you report for `O=c1sn(-c2cccc3ccccc23)c(=O)n1Cc1ccccc1` ?
105

Here is the next compound: CC1(/C=N/NC(N)=S)NC(=O)NC1=O (stereo unspecified)
108

Entry `CN(C)CCOC(=O)Nc1nc2ccc(Sc3ccccc3)cc2[nH]1` please
24.9

Also `COc1ccc2c(c1)cn1c3ccc(O)cc3nc(N)c21` , if possible.
21.9

// same read-out, input: `Cc1cc2c(-c3nc4ccccn4c3NC34CC5CC(CC(C5)C3)C4)c(O)c(O)cc2c(O)c1-c1c(C)cc2c(-c3nc4ccccn4c3NC34CC5CC(CC(C5)C3)C4)c(O)c(O)cc2c1O`
1.49

Now try `Cc1cc(NCC(=O)Nc2ccc(-c3nc4ccccc4s3)cc2)no1` .
96.4

Follow-up entry: `NC(=O)c1n[nH]n2c1nc(=O)c1c3c(sc12)CCCC3`
102

Try this compound too: O=C1C=CC2(NN=C(c3ccccc3)N2c2cccc(Cl)c2)C(Cl)=C1 (stereo unspecified)
76.7

// repeat for `COC(=O)c1[nH]cnc1/N=N/N(C)CCO` and report
112

Also `Ic1ccccc1-c1ccccc1` , if possible.
122

Would you mind doing `NC1(C(=O)N[C@@H](CCO)c2ccc(Cl)cc2)CCN(c2ncnc3[nH]ccc23)CC1` as well?
-3.48

Item: `Nc1c2c(c(O)c3c1=C(CO)C=N3)=NCCS2`
-94.5
